apparent KD of MS2 coat protein reference
Tested on: MS2 coat protein
method: apparent KD of MS2 coat protein, switch ON state; designed switch direction (-1 OFF switch, 1 ON switch): 1; higher = weaker reporter binding
setup conditions: FMN input: 0 or 200 uM; Eterna round: R93 (includes R88 designs)
Please respond with the number in nM and leave the unit unwritten.

Some sequences with recorded apparent KD of MS2 coat protein:
GAAAAACAUGAGGAUCACCCAUGUAAGAUAAACACAGGAUAUGCGAAAAUAAAUAAAGAAGCAGAAGGGUGAAGAA [Mat - Same State 1 - Tesla mod - 73]    11.1
AAUAAUUAUAUGGAGGAUAUCCGUAAUAAGACAUGAGGAUCACCCAUGUAAUAAGGUUAAAUAAAGGAGAAGGCCAAGGGUGAAA [JR_SS002_Sub004]    129
UUACAGCACAGGUAGGAUAUGUAGGGUGGUACAUGAGGAUCACCCAUGUAUCCACCCUUCGAAAGGCAGAAGGGCCUGUCGCCGC [Leanisqube]    13.1
GGGAGACAUGAGGAUCACCCAUGUGAGAAGAGGCGAGGAUAUCGAAAGAAAGAAGAGAAACGAGAAGGCGCGAGCC [salish99-SS1-064]    94.2
AGAAAUAAAAGAGAGGAUAUUCAAAAAGGGACAUGAGGAUCACCCAUGUAAAAGAAAAUAAAAUGGGAGAAGGCUCUAAAUAAAG [80%, More Helter Skelter 2]    86.6

Entry AGAAUAAAAAGACAGGAUAUCCAAAAAAAAACAUGAGGAUCACCCAUGUAAAAAAAAUAAAAAUGGGAGAAGGGUCAAAAUAAGA [Mat - Same State 2 - JL mod - D64] : reported apparent KD of MS2 coat protein = ? 19.9

Check CGAAAGUAUGCACAGGAUAUGUACAGGCUAACAUGAGGAUCACCCAUGUGAAAAUGGACCAUGUCGCAGAAGGGUGCCCUCCCGA [Mageor] too. 22.1

Check UAUCCGGCAGUGUAGGAUAUGUUGUAGUCAACAUGAGGAUCACCCAUGUGGAUUAUAUAAGAUUCACAGAAGGGCACUGCAUUGC [Geiner] too. 87.8

Check AAACCACAUGAGGAUCACCCAUGUAAAAAUAUGGGAGGAUAUCGGAAUAAAAUAAAGAAACGAGAAGGCCUAAAAG [59%, Flamingo, 4] too. 69.3

Check AACAAUCUAUCUGAGGAUAUCAUGACAAAGACAUGAGGAUCACCCAUGUACCAGGAAACUGGUUAUGAGAAGGCAGAUAGAUUGA [SS2: 1117] too. 11.5

Check AUGAAUAGCAUCGAGGAUAUCCAGUCAUGAACAUGAGGAUCACCCAUGUAAGAGAGAGUAUAAUGGGAGAAGGCGAGUAAUCGAU [JR_SS002_Sub1703] too. 40.3

Check AAAACACAUGAGGAUCACCCAUGUGCAAAAUUCGCAGGAUAUUCCUCAAUUAAAUGAAAGGAAGAAGGGUGAUAAA [Nob's Hobby 32 - Jieux - Same State 1] too. 17.8

Check AACCAACAUGAGGAUCACCCAUGUCAACCCAAGCGAGGAUAUCCGAGAAUAACAAUGGGAGGAGAAGGCGCGACCU [ss1] too. 38.1

Check AAAAAACAUGAGGAUCACCCAUGUAGAAAUAUGGGAGGAUAUGGAAACACGAAAGUGAAACCAGAAGGCUCAAAAG [77%, Mat - Mod of Eli, 8] too. 26.6

Check AAAAGACAUGAGGAUCACCCAUGUAAAAACAUAGGAGGAUAUGUCUUGAAAAAAGACUUGACAGAAGGCCUUUGUC [SS1 - 52] too. 39.5

Check AAAACACAUGAGGAUCACCCAUGUAGAAAUACGGGAGGAUAUGCGAAAACGAAAGACAAAGCAGAAGGCCUAAAAG [saturn 6] too. 12.3

Check AGGAAACAUGAGGAUCACCCAUGUAAGAUAAACACAGGAUAUGCGAAAAGAAACAAAGAAGCAGAAGGGUGGAGAA [75%, Ex5 sub 1, 3] too. 19.4

Check AACAUACAUGAGGAUCACCCAUGUUCCGGCAGGACAGGAUAUACAUCGAAAGUGUUAUAAGUAGAAGGGUCAUAAA [JR_SS001_Sub012] too. 56.7

Check GAAAAACAUGAGGAUCACCCAUGUGGAAAUAUGGGAGGAUAUACAAAGACGGAAGUCAAAGUAGAAGGCCUAAAAG [Mat - Same State 1 - Eli mod - D10] too. 26.5

Check AAAAAAAAAAGUGAGGAUAUGGGAAAAUUAACAUGAGGAUCACCCAUGUGAUAAAAAAAAAAAAACCAGAAGGUACAAAAAAAAAA [Same 2] too. 26.1

Check AGCGAACAUGAGGAUCACCCAUGUGAAAAACAUAGAGGAUAUGUCGCAUGAGUGUAAAAGACAGAAGGCUAUCGCA [Mod of Nando] too. 38.8

Check AAAAAAAAAAGACAGGAUAUACAAUAUAUUACAUGAGGAUCACCCAUGUUUUUUUUUUAAUUAAAGUAGAAGGGUCAAAAAAAAAA [SS 2.1] too. 25.6
